These data points were gathered from the supplement of paper PMC6555819.

system: PPARg homodimer (NR concentration 180 nM); test: PBM binding z-score (relative to random genomic background probes); higher = stronger binding; sequences stand for … in GC…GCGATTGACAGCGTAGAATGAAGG
Measurement name: PBM binding z-score
Lab note: record the figure alone, no unit after it.

Here is how some sequences turned out for PBM binding z-score.
{"Sequence content": "CCGAGTATGTTACGAGGGGGCATTCAGTGCGAAT", "Target": "PPARg homodimer (NR concentration 180 nM)", "PBM binding z-score": 1.3}
{"Sequence content": "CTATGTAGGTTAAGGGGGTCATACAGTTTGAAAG", "Target": "PPARg homodimer (NR concentration 180 nM)", "PBM binding z-score": 3.8}
{"Sequence content": "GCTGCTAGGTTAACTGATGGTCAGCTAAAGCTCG", "Target": "PPARg homodimer (NR concentration 180 nM)", "PBM binding z-score": -0.127}
{"Sequence content": "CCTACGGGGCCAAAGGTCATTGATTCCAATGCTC", "Target": "PPARg homodimer (NR concentration 180 nM)", "PBM binding z-score": 5.46}

Any idea what its PBM binding z-score is? The sequence is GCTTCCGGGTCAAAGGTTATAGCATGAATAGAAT
4.67

Also check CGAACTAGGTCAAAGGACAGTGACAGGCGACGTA
1.78

Also check CAAACTAGGCCAAGGTCAAAGTCGGTTTGTGCCA
1.87

Also check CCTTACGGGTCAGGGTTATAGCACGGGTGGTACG
1.81

Also check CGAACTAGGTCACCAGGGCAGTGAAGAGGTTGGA
1.95

Also check ACTAGCAGGCCAAAGGTCACTCAAGATTAGTCCG
1.96

---

system: THRa:RXRa (NR concentration 90 nM, RXRa partner concentration 90 nM); assay: PBM binding z-score (relative to random genomic background probes); higher = stronger binding; sequences stand for … in GC…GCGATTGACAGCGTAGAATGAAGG
Readings of PBM binding z-score for the listed sequences
Lab note: record the figure alone, no unit after it.

{"Sequence content": "AGTCAAAGTTCACGACGAGGTAACGTAAAGCACG", "Measurement name": "PBM binding z-score", "Reading": 4.41}
{"Sequence content": "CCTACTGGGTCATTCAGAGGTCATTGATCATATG", "Measurement name": "PBM binding z-score", "Reading": 4.32}
{"Sequence content": "CATACAGGGTCCGCTAGGCCAGAGTAGGGACGGC", "Measurement name": "PBM binding z-score", "Reading": -0.0805}

Next sequence, PBM binding z-score to be filled in.
Please provide the recorded PBM binding z-score for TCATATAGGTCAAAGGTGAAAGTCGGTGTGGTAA , tested on THRa:RXRa (NR concentration 90 nM, RXRa partner concentration 90 nM).
3.74

---

system: PPARg:RXRa (NR concentration 180 nM, RXRa partner concentration 90 nM); assay: PBM binding z-score (relative to random genomic background probes); higher = stronger binding; sequences stand for … in GC…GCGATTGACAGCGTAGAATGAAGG
Measurement name: PBM binding z-score
Lab note: record the figure alone, no unit after it.

Here is how some sequences turned out for PBM binding z-score.
{"Sequence content": "ATCAAAAGGTCGAAGGTGAGTATACCCACCCGAA", "Measurement name": "PBM binding z-score", "Reading": 5.28}
{"Sequence content": "CCTAGTAGGTTACGAGGGGGCATTCAGTGCGAAT", "Measurement name": "PBM binding z-score", "Reading": 5.11}
{"Sequence content": "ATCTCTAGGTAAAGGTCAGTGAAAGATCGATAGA", "Measurement name": "PBM binding z-score", "Reading": 6.77}
{"Sequence content": "ATATGTCGGTTAGGGTCATTCAGAAAGTAGGGAA", "Measurement name": "PBM binding z-score", "Reading": 3.57}
{"Sequence content": "TCTGCTTGGTCAACGATGGTCAGCTAATCTGCTA", "Measurement name": "PBM binding z-score", "Reading": -0.488}
{"Sequence content": "CTATGTAAGTTAAGGGGGTCATTCAGTTTGAAAG", "Measurement name": "PBM binding z-score", "Reading": 3.92}

Any idea what its PBM binding z-score is? The sequence is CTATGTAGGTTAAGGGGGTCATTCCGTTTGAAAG
8.1

Also check CGAACTAGGTCACTAGGACAGTGAAGAGGTTGGA
8.29

Also check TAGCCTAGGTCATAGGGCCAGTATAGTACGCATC
3.32

Also check TCTAGTTGGTCATGGAGGTCACACACGACGGGTA
3.39

Also check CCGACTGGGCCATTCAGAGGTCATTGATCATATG
1.4

Also check ATATGTAGGCTAGGGTCATTCAGAAAGTAGGGAA
5.38

Also check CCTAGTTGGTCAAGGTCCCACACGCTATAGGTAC
0.782

Also check TCGAGTAGGTTACGGGGGCATCCAGGGATGAAGA
6.04

Also check GATACAGGGTCAGCTAGAGGGCAGAGTATGGAAA
4.11

---

tested on: PPARg DBDmut IVT, anti-PPARg (DBD mutation: PPARg1 K132A/R137A, NR concentration 270 nM); test: PBM binding z-score (relative to random genomic background probes); higher = stronger binding; sequences stand for … in GC…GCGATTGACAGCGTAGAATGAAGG
Readings of PBM binding z-score for the listed sequences
Lab note: record the figure alone, no unit after it.

Here is how some sequences turned out for PBM binding z-score.
{"Sequence content": "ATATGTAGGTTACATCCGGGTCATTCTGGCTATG", "Measurement name": "PBM binding z-score", "Reading": 2.66}
{"Sequence content": "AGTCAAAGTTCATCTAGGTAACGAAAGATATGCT", "Measurement name": "PBM binding z-score", "Reading": 1.3}

Next sequence, PBM binding z-score to be filled in.
Any idea what its PBM binding z-score is? The sequence is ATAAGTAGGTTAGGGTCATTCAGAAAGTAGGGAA
2.11

---

Readings of PBM binding z-score for the listed sequences
test system: FXR:RXRa (NR concentration 270 nM, RXRa partner concentration 90 nM); assay: PBM binding z-score (relative to random genomic background probes); higher = stronger binding; sequences stand for … in GC…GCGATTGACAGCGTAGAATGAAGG
Lab note: record the figure alone, no unit after it.

Here is how some sequences turned out for PBM binding z-score.
{"Sequence content": "ATATGTAGGTTAGGGTCATTCGGAAAGTAGGGAA", "PBM binding z-score": 5.03}
{"Sequence content": "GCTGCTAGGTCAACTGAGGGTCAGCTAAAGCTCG", "PBM binding z-score": 5.12}
{"Sequence content": "TATACTGGGTCAAAGGCCAGAGTACGAATGTCGA", "PBM binding z-score": 4.05}

Any idea what its PBM binding z-score is? The sequence is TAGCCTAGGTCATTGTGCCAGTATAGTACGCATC
4.04

Also check TCTAGTTGGTCACGGGGGTCACACACGACGGGTA
5.12

Also check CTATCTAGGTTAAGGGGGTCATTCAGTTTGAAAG
5.03

---

test system: VDR homodimer (NR concentration 270 nM); experiment: PBM binding z-score (relative to random genomic background probes); higher = stronger binding; sequences stand for … in GC…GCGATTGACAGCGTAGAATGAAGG
Measurement name: PBM binding z-score

Here is how some sequences turned out for PBM binding z-score.
{"Sequence content": "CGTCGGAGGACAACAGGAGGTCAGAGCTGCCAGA", "Reading": 1.79}
{"Sequence content": "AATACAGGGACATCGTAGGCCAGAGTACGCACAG", "Reading": 0.53}
{"Sequence content": "AGTCAAAGTTCAGGACGAGGTCACGTAAAGCACG", "Reading": 5.43}
{"Sequence content": "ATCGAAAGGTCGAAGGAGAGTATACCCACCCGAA", "Reading": 0.458}
{"Sequence content": "CTAACTAGGTCACCAGGACAGTGAAGAGGTTGGA", "Reading": 0.856}
{"Sequence content": "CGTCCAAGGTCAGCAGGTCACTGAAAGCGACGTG", "Reading": 1.88}

Any idea what its PBM binding z-score is? The sequence is TATACAGGGTCAAAGGGCAGAGTACGAATGTCGA
3.82

Also check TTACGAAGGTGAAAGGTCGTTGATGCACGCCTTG
1.25

Also check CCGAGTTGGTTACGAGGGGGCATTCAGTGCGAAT
4.2

Also check CCTTACGGGTCTCTCCAGGTTATAGCATCGGAGT
0.105

Also check CCGAGTAGGTTACGATGGGGCATTCAGTGCGAAT
0.231
